Origin of values: the supplement of paper PMC12636428

# System: Saccharomyces cerevisiae
# testDetails: transcriptional activation domain activity (GFP:mCherry ratio, weighted mean of sorted bins, harmonized to initial dataset scale) (arbitrary fluorescence ratio units); higher = stronger transcriptional activation
# testSettings: beta-estradiol 1 µM; induction time 4 h
Class membership depends on transcriptional activation domain activity alone; the intervals are bucket 1 = under 40000, bucket 2 = from 40000 up to 50000, bucket 3 = 50000 and over

| sequenceText | label |
| --- | --- |
| MKILSFLCTYSLSFTLTIPNSLLSFLRTLFNFTNNYKYMILLLLGYLCLIGLF | bucket 1 |
| MSTEVKAAHAGKARQKAWKPKVKTGCVTCRNRRVKCDEAKPDCRRCVAAGRKC | bucket 1 |
| MCSILPTVCNQYLIFLSFVSCPSMLYLISYFFLMWSFFSLHNWFFCWVPCCVL | bucket 3 |
| AAAVAAKKPEEKKEETPAEAATEAPKEEAKEEKKEEKAATKSRSQSRKRTSIF | bucket 1 |
| TWPINYRIRYILPLLVIAGYTKETLRLIQCIHQTRSSFFTPHFFRRMLRVLLR | bucket 3 |
| IYAYRESWGIDGAVFCKSWMLYWLLMDIHWQVMETLIACYIPMQFSPFFVFPW | bucket 3 |
| FFFSFFFFLFLFLFHLRFFPLTFVPFFIPCLLLLSSSLLLCCVVWYLFMRLFS | bucket 2 |
| KIHIANMAQVAVFLLHKILYGIIPLFEISTCAYFPLLISLWHLNYLLFYTVMF | bucket 3 |
| SGDADEDGNGHGTHCSGTVAGKKYGVAKKASVYAVKVLRSNGSGSMSDVVKGV | bucket 2 |
| SGLPIQYLNGSVTYQDGWVWLPGDSTDINATVQDLEDMWDSMVLNFWPLMTLF | bucket 3 |
| YAEWLIEPEQNNGTWVADVLWPAINLDLQWISLHWNQSSWDLWWPPVWGGSYW | bucket 3 |
| MLLNVFFFFPSSILGSFLYTDLFYFGFFSLIMLFPFKLPCIQPTFFFFTPSFI | bucket 2 |
| SDSQKSGKIWGLCCTDSFGCLDLIIGLDLSDVLLVIQWRSTCDMCTLWQRLGH | bucket 3 |
| AADGSPAPRPNAICIHEVDQGIQWKHTNHRTGKAVVVRKRQLVLQQIITVANY | bucket 2 |
| IIKLLVFTLWVLDSMHLILCTIAIYWYLIRNFNNTTNLQLNHWSMNLQTDCNG | bucket 2 |
| VHLLLTVFFHYVPTPDPFFTNLLLCPLDGLLRANSVTLALSLLSRPSINPLLV | bucket 3 |
| WRYGKCQVCGYVMINYPGPNQRHHCLEGRVRTVYNTVTFPCYLEVHVVQMIWL | bucket 3 |
| ESAPAAEDKPAEETKPAEAEEAPKAEEKKEEVKPIEEGHLNHKAQGLSFPKNL | bucket 1 |
| DPNSPLDGDVDELRSREIAAKAVTGTLILLLKWLKLSHVLKFEYVTQLLLDLN | bucket 3 |
| KIAAGAALATAAGVGLHHLRERQRSQSRSSSSERSGRSRSRHRLRHAAELGAA | bucket 3 |
| MRILQFFSFLYLLLYFSRTLLIVIYTLVILLLNQLLVFFKFLSLFFAFFWYVF | bucket 2 |
| MLLIWLYALKTGFVLSAVVSFGFWYSISLFFMYFIGKPLFHDSFFLFFSSFFL | bucket 3 |
| HERLKLCNYQQAPDNIWCQYWFMGSFLVFFSNLDAVIDLPVMILLDLMPQICF | bucket 2 |
| RLRKDVGPFSPDDIQKPSLTWIHVRRNNLLLMMAPVRSYTWKAAQTLGEIFGA | bucket 1 |
| KASGSARESVDGEEDKEEAKEKNKENVKVEEKLDADEGEKESKVKAEAAKEPG | bucket 1 |
| VTCFGILCFLLSALYLCIGFDPFINQLLYCGVLWLFQGIYFVLFGMKVALHFQ | bucket 1 |
| ESEEEVAAGSSANGKKQSGTRDSSKRSKKSDSKSEAKRSDKAEGAAEKTAPES | bucket 1 |
| PLNMLHLGTWYLDGFQPFEHLRANKELWNLLVRGQTEILSLPRFGWTGWLLSF | bucket 2 |
| MNLLFITFFLLVMWVVWFICVVVPFFLLLLLCFFSFLFFRLFGAGWLGWVGNF | bucket 2 |
| YCGDDMHSLRIVVAVLALLTTLKSIHAFAIVWVQSIVHFGDLQGAILLNYTAW | bucket 3 |
